# assay: Cytotoxicity in HeLa cells (ATPlite, CC50) used for selectivity index
# settings: human

{"columns": ["smiles.string", "selectivity ratio at 3 days"],
 "data": [
  ["CS(=O)(=O)CCCn1c(CN2C(=O)C3(CN(C(=O)N[C@H]4C[C@H](O)C4)C3)c3ccccc32)cc2cc(Cl)ccc21", 300000],
  ["CN(C)CCNC(=O)N1CC2(C1)C(=O)N(Cc1cc3cc(Cl)ccc3n1CCCS(C)(=O)=O)c1ccccc12", 39300],
  ["CS(=O)(=O)CCCn1c(CN2C(=O)C3(CN(C(=O)NCC(F)(F)F)C3)c3ccccc32)cc2cc(Cl)ccc21", 86900],
  ["CC(C)NC(=O)N1CC2(C1)C(=O)N(Cc1cc3cc(Cl)ccc3n1CCCS(C)(=O)=O)c1ccccc12", 357000]
]}

* * *

# assay: Cytotoxicity in HeLa cells (ATPlite, CC50) used for selectivity index
# settings: human
property: selectivity ratio at 3 days

{"columns": ["compound", "rel", "endpoint.value"],
 "data": [
  ["CC(CO)NC(=O)N1CC2(C1)C(=O)N(Cc1cc3cc(Cl)ccc3n1CCCS(C)(=O)=O)c1ccccc12 (stereo not drawn)", "=", 98200],
  ["CN(C)CCN(C)C(=O)N1CC2(C1)C(=O)N(Cc1cc3cc(Cl)ccc3n1CCCS(C)(=O)=O)c1ccccc12", "=", 2570],
  ["CC(C)NC(=O)N1CC2(C1)C(=O)N(Cc1nc3nc(Cl)ccc3n1CCCCF)c1ccccc12", ">", 80200],
  ["O=C(NC1CCOCC1)N1CC2(C1)C(=O)N(Cc1nc3nc(Cl)ccc3n1CCCC(F)(F)F)c1ccccc12", ">", 61800],
  ["CS(=O)(=O)CCCn1c(CN2C(=O)C3(CN(C(=O)NCCN4CCOCC4)C3)c3ccccc32)cc2cc(Cl)ccc21", "=", 159000],
  ["CC(C)(CO)NC(=O)N1CC2(C1)C(=O)N(Cc1cc3cc(Cl)ccc3n1CCCS(C)(=O)=O)c1ccccc12", "=", 43400],
  ["N#CCCCn1c(CN2C(=O)C3(CN(C(=O)NC4CCOCC4)C3)c3ccccc32)cc2cc(Cl)ccc21", "=", 100000],
  ["N#CCCCn1c(CN2C(=O)C3(CN(C(=O)NC4CCN(CC(F)(F)F)CC4)C3)c3ccccc32)cc2cc(Cl)ccc21", "=", 100000],
  ["N#CCCCn1c(CN2C(=O)C3(CN(C(=O)NC4CC(O)C4)C3)c3ccccc32)cc2cc(Cl)ccc21 (stereo not drawn)", "=", 103000],
  ["CC(C)NC(=O)N1CCC2(CC1)C(=O)N(Cc1nc3cc(Cl)ccc3n1CCCC#N)c1cnccc12", ">", "4.11e+06"],
  ["O=C(NC1CC(O)C1)N1CC2(C1)C(=O)N(Cc1nc3nc(Cl)ccc3n1CCCC(F)(F)F)c1ccccc12 (stereo not drawn)", ">", 75400],
  ["CC(C)NC(=O)N1CC2(C1)C(=O)N(Cc1nc3cc(Cl)ccc3n1CCCS(C)(=O)=O)c1ccccc12", ">", "4.93e+06"],
  ["CNC(=O)N1CCC2(CC1)C(=O)N(Cc1cc3cc(Cl)ccc3n1CCCC#N)c1cnccc12", ">", 565000],
  ["CC(C)NC(=O)N1CCC2(CC1)C(=O)N(Cc1cc3cc(Cl)ccc3n1CCCC#N)c1cnccc12", "=", 25400],
  ["CN1CCC(NC(=O)N2CC3(C2)C(=O)N(Cc2cc4cc(Cl)ccc4n2CCCC#N)c2ccccc23)CC1", "=", 10000],
  ["CC(C)(C)OC(=O)N1CCC(NC(=O)N2CC3(C2)C(=O)N(Cc2cc4cc(Cl)ccc4n2CCCC#N)c2ccccc23)CC1", ">", 50000],
  ["CC(C)NC(=O)N1CC2(C1)C(=O)N(Cc1nc3cc(Cl)ccc3n1CCCC#N)c1ccccc12", ">", "1.11e+06"],
  ["CNC(=O)N1CCC2(CC1)C(=O)N(Cc1nc3cc(Cl)ccc3n1CCCC#N)c1cnccc12", ">", "1.82e+06"],
  ["CC(C)NC(=O)N1CCC2(CC1)C(=O)N(Cc1cc3cc(Cl)ccc3n1CCCS(C)(=O)=O)c1cnccc12", "=", 300000],
  ["O=C(NC1CC(O)C1)N1CC2(C1)C(=O)N(Cc1nc3nc(Cl)ccc3n1CCCCF)c1ccccc12 (stereo not drawn)", ">", 71400],
  ["N#CCCCn1c(CN2C(=O)C3(CN(C(=O)N[C@H]4C[C@H](O)C4)C3)c3ccccc32)cc2cc(Cl)ccc21", ">", 254000],
  ["CS(=O)(=O)CCCn1c(CN2C(=O)C3(CN(C(=O)N[C@H]4C[C@@H](O)C4)C3)c3ccccc32)cc2cc(Cl)ccc21", ">", 505000],
  ["N#CCCCn1c(CN2C(=O)C3(CN(C(=O)N[C@H]4C[C@@H](O)C4)C3)c3ccccc32)cc2cc(Cl)ccc21", ">", 232000],
  ["N#CCCCn1c(CN2C(=O)C3(CN(C(=O)NC4CCNCC4)C3)c3ccccc32)cc2cc(Cl)ccc21", "=", 158000]
]}
